Details: buffer; pH 7.4; 200.0 µM
Tag: label 1 if measured solubility kinetic is not below 30 µg/mL, label 0 if it is.

Exercise: I'd appreciate it if you could say whether "Cc1ccccc1C(=O)Nc1scc(-c2ccc(Br)cc2)c1C(=O)O" has solubility kinetic at least equal to 30 µg/mL.
Solution: label 0

Exercise: # iterate: "CSc1nc(S(=O)(=O)c2ccc(C)cc2)c(Cl)s1"
Solution: label 0

Exercise: # iterate: "CC(=O)c1c(C(=O)O)c2ccccc2[nH]c1=O"
Solution: label 1

Exercise: # iterate: "CCCn1c(Oc2ccccc2)nc2c1c(=O)n(C)c(=O)n2C"
Solution: label 1

Exercise: # iterate: CCC(C)NC(=O)c1ccc(C(=O)c2ccccc2)cc1 (stereo unspecified)
Solution: label 1

====

Conditions: buffer; pH 7.4; 200.0 µM
This section presents compounds with their documented log10 solubility kinetic values.
Field: value | Transform: log10 | Quantity: solubility kinetic | Unit: µg/mL

Below are worked cases with known answers.
1) CCOC(=O)N1CCc2c(sc(NC(=O)CN3CCOCC3)c2C#N)C1    1.69
2) Cc1ccc2[nH]c(C(=O)N3CCN(C(c4ccccc4)c4ccccc4)CC3)cc2c1    0.00
3) CCOC(=O)CSCc1csc(CC(=O)Nc2ccccc2C)n1    1.72
4) Cc1sc2c(c1C)C(=O)/C(=C\Nc1ccncc1)S(=O)(=O)N2C    0.28
5) CS(=O)(=O)N(CC(=O)O)c1ccc(C23CC4CC(CC(C4)C2)C3)cc1    1.69
6) CN(C)C(=O)c1c(NC(=O)c2ccccc2)sc2c1CCC2    1.63
7) Cc1cc(C)c(C#N)c(SCC(=O)Nc2nonc2N)n1    1.18
8) COc1ccc(CC(=O)Oc2ccccc2[N+](=O)[O-])cc1    1.15

Exercise: Endpoint output: log10 solubility kinetic of "COc1ccc(N2C(=O)/C(=C/c3cccs3)C(=O)NC2=S)cc1" . Value?
Solution: 1.50

Exercise: # iterate: "O=C(NC1CCCC1)c1cc(-c2ccccc2)on1"
Solution: 0.60

====

This section presents compounds with their documented solubility kinetic values.
Details: buffer; pH 7.4; 200.0 µM

Below are worked cases with known answers.
1) Cc1ccc(NC(=O)CNC(=O)c2ccc(C(C)(C)C)cc2)cc1S(=O)(=O)N1CCOCC1    16.1 µg/mL
2) Cc1ccc(CNCCNCCO)s1.Cl    > 43.1 µg/mL
3) Cc1ccc(C(=O)N2CCN(c3nc4ccccc4n3C)CC2)cc1    > 50.2 µg/mL
4) Cc1ccc2nc(-c3ccncc3)cc(C(=O)Nc3ccncc3)c2c1    3.5 µg/mL
5) CCCCOc1ccc(C2C(C(=O)c3ccc(C)o3)=C(O)C(=O)N2Cc2ccco2)cc1 (stereo unspecified)    46.9 µg/mL
6) C=C(C)C(=O)OCC(=O)NCc1ccccc1    27.2 µg/mL
7) O=C(CSc1ncccn1)N1CCCCCC1    > 37.7 µg/mL
8) COc1ccc(N2CCN(CC(=O)c3ccccc3)CC2)cc1    > 46.6 µg/mL
9) O=C(CCc1ccccc1)Nc1cccnc1    > 33.9 µg/mL
10) CN(CC(=O)Nc1cccc(F)c1)CC(=O)N(C)c1c(N)n(Cc2ccccc2)c(=O)[nH]c1=O    > 70.3 µg/mL

Please examine the following record next.
Exercise: Endpoint output: solubility kinetic of "CCOC(=O)c1c(C)nc(C)c2c(=O)oc3ccccc3c12" . Value?
Solution: < 0.6 µg/mL
